- System: 997726-040-R-J2-PDC tumor spheroids, viability;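 further: spheroids exposed to compounds for seven days before readout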
- Assay Method Text: Anticancer human tumor 997726-040-R-J2-PDC patient-derived squamous cell lung carcinoma cell line growth inhibition [PI3K]; active means viability on the fitted dose curve at most 10% of control; inactive means the rest
- Details: second compound 1 µM; first compound 0.316 µM; spheroids with HUVEC and MSC
Bench note: report the call from y (active), n (inactive)

compound="CC(C)NCC(C(=O)N1CCN(c2ncnc3c2C(C)CC3O)CC1)c1ccc(Cl)cc1 (stereo not given) + CC(Nc1ncnc2nc[nH]c12)c1cc2cccc(Cl)c2c(=O)n1-c1ccccc1" label_value=n

Exercise: Write down the call the test reported for this compound. Item: Cn1nccc1Nc1nccc(-c2ccn(C(CO)c3ccc(Cl)c(F)c3)c(=O)c2)n1 (stereo not given) + CC(Nc1ncnc2nc[nH]c12)c1cc2cccc(Cl)c2c(=O)n1-c1ccccc1
Solution: n

Exercise: Another compound to check: C#Cc1c(F)ccc2cc(O)cc(-c3ncc4c(N5CC6CCC(C5)N6)nc(OCC56CCCN5CC(F)C6)nc4c3F)c12 (stereo not given) + Cc1nc(NC(=O)N2CCCC2C(N)=O)sc1-c1ccnc(C(C)(C)C(F)(F)F)c1
Solution: n
